test system: MOLT-4 leukemia; assay: NCI tumour cell line growth inhibition, 48 h
observation.type: TGI

# annotated cases, reported TGI shown
compound: CCOC(=O)N1CCN(c2ccc3ccc(N)nc3n2)CC1
TGI: > 100 µM

compound: O=C(O)CCC(N=C(C(=NC(CCC(=O)O)C(=O)O)c1ccccc1)c1ccccc1)C(=O)O (centres undefined)
TGI: > 100 µM

Quick one: give me TGI for each item below, same order please.
1. COC1(C)OC[C@@]2(C)OC(C)C1(C)C2O[Si](C(C)C)(C(C)C)C(C)C (some centres undefined)
2. O=C1Cc2ccccc2N1/N=C\c1ccc([N+](=O)[O-])cc1
3. c1ccc(N2CCN(CN3CCN(c4ccccc4)C3)C2)cc1
4. C=CC(=O)N1CC2(CCC(n3nc(-c4ccc(Oc5ccccc5)cc4)c4c(N)ncnc43)CC2)C1
5. N#Cc1nnc2ccccc2c1N
6. COc1cc(C(=O)/C=C/c2c(C)n([O-])c3ccc(C(F)(F)F)cc3[n+]2=O)cc(OC)c1OC
7. C=C1CC(OC)(C(OC)C(=O)N(C)[C@H]2OCO[C@H]3C2O[C@H](C[C@@H](COC)OC)C(C)(C)C3OC)O[C@H](C)[C@@H]1C (some centres undefined)
8. CCOC(=O)Nn1cnnc1C

1. 50.9 µM
2. > 100 µM
3. > 100 µM
4. 6.39 µM
5. > 100 µM
6. 5.11 µM
7. 36 µM
8. > 100 µM

Quick one: give me TGI for each item below, same order please.
1. CCc1cccc(CC)c1NC(=O)C(=O)Cc1nc2ccccc2o1
2. NC(=Nc1ccc(Cl)cc1)c1ccccc1N

1. > 100 µM
2. > 100 µM

Quick one: give me TGI for each item below, same order please.
1. CCOc1ccc(NC(=O)CC2C(=O)Nc3ccccc3S2=O)cc1 (centres undefined)
2. COc1ccc(C2=Nn3c(nnc3-c3ccccc3)S/C2=C\c2ccc(-c3ccc([N+](=O)[O-])cc3)o2)cc1

1. > 100 µM
2. 76.6 µM
